# Protocol Details: Microsomal stability / intrinsic clearance assay, human
# Format: in vitro ADME
# Details: liver microsomes, read-out: NADPH-Dependent CLint
Measure: microsomal CLint at 1 μM (µL/min/mg)

[[record]]
structure_notation = "COc1cc2ncnc(Nc3ccc(Cl)cc3Cl)c2cc1OC"
measure = "microsomal CLint at 1 μM"
result = 98.4


###

# Protocol Details: Microsomal stability / intrinsic clearance assay, human
# Assay type: in vitro ADME
# Details: liver microsomes, read-out: NADPH-Free T1/2
Measure: half-life at 1 μM

[[record]]
molecule = "COc1cc2ncnc(Nc3ccc(Cl)cc3Cl)c2cc1OC [LDDN-0003499]"
result = "1.08 h"

